# Tested on: MDR1 (P-gp)
# Test Method Notes: MDR1-MDCK assay, blood-brain-barrier penetration potential
# Type: in vitro ADME
# Protocol Conditions: dog, MDCK-MDR1, pH 7.4, A to B, replicate 1, 5 μM, 120 minutes; read-out: Papp R1
Experimental Endpoint: Papp A→B at 120 min, 5 μM (×10⁻⁶ cm/s)
# output: bare number, implied unit ×10⁻⁶ cm/s

Given item O=C(COc1ccccc1C(=O)NC[C@@H]1CCCO1)Nc1ccc(Br)cc1 [Compound 8] , the value recorded as its Papp A→B at 120 min, 5 μM is 33.4

----------
# Test system: MDR1 (P-gp)
# Test Method Notes: MDR1-MDCK assay, blood-brain-barrier penetration potential
# Format: in vitro ADME
# Protocol Conditions: dog, MDCK-MDR1, pH 7.4, A to B, average, 5 μM, 120 minutes; read-out: Papp AVE
Experimental Endpoint: Papp A→B at 120 min, 5 μM (×10⁻⁶ cm/s)
# output: bare number, implied unit ×10⁻⁶ cm/s

Given item O=C(COc1ccccc1C(=O)NC[C@@H]1CCCO1)Nc1ccc(Br)cc1 , the value recorded as its Papp A→B at 120 min, 5 μM is 32.1
